Measured pKd, listed per entry for reference.
biological target: WDR5 protein (Homo sapiens (Human)); assay: Surface Plasmon Resonance (SPR) assay; type: binding; conditions: SPR, Table 1; read-out: WDR5 binding affinity (KD)
Note on units: pKd is unitless, being -log10 of a concentration expressed in mol/L.

// worked examples, pKd included
Note down pKd recorded for CN1CCN(c2ccc(-c3cc(CN4CCN(Cc5ccc(F)cc5)CC4)ccc3F)cc2NC(=O)c2c[nH]c(=O)cc2C(F)(F)F)CC1 [Example 68]
8.11

Note down pKd recorded for CC1CN(c2ccc(-c3cc(C(=O)NC4CCCCC4)ccc3F)cc2NC(=O)c2c[nH]c(=O)cc2C(F)(F)F)CCN1C (stereo not shown) [Example 81]
8.20

Note down pKd recorded for CN1CCN(c2ccc(-c3cc(CNC4CCCCC4)ccc3F)cc2NC(=O)c2c[nH]c(=O)cc2C(F)(F)F)CC1 [Example 7]
8.40

Note down pKd recorded for CN1CCN(c2ccc(-c3cc(CN4CCNCC4)ccc3F)cc2NC(=O)c2c[nH]c(=O)cc2C(F)(F)F)CC1 [Example 72]
8.29

Note down pKd recorded for C[C@@H]1CN(c2ccc(-c3cc(C(=O)NC4CCCCC4)ccc3F)cc2NC(=O)c2c[nH]c(=O)cc2C(F)(F)F)C[C@H](C)N1C [Example 46]
9.02

Would you kindly look at the next entry?
Note down pKd recorded for C[C@@H]1CN(c2ccc(-c3cc(CN4CCOCC4)ccc3F)cc2NC(=O)c2c[nH]c(=O)cc2C(F)(F)F)C[C@H](C)N1C [Example 27]
8.10

###

molecular target: MLL1-WRAD2 complex (Homo sapiens (Human)); experiment: MLL1-WRAD2 enzyme assay (in vitro methyl transferase assay); format: biochemical; conditions: MLL1-WRAD2 assay; read-out: In vitro MLL1 activity (IC50)
quantity: log10(IC50) (log10 of the value in nM)
Values are log10 of IC50 in nM.

Note down log10(IC50) recorded for CCN1CCN(c2ccc(-c3cc(CNC4CCCCC4)ccc3F)cc2NC(=O)c2c[nH]c(=O)cc2C(F)(F)F)CC1
3.75

Note down log10(IC50) recorded for Cc1cc(C(=O)Nc2cc(-c3cc(CN4CCOCC4)ccc3F)ccc2N2CCN(C)CC2)cc(C)c1F
3.65

Note down log10(IC50) recorded for CN1CCN(c2ccc(-c3ccnc(N4CCOCC4)c3F)cc2NC(=O)c2c[nH]c(=O)cc2C(F)(F)F)CC1
3.40

Note down log10(IC50) recorded for C[C@@H]1CN(c2ccc(-c3cc(C(=O)N(C)C4CCCCC4)ccc3F)cc2NC(=O)c2c[nH]c(=O)cc2C(F)(F)F)C[C@H](C)N1C
2.31

Note down log10(IC50) recorded for CN1CCN(c2ccc(-c3cc(OCC4CC4)ncc3F)cc2NC(=O)c2c[nH]c(=O)cc2C(F)(F)F)CC1
3.35

###

target: WDR5 protein (Homo sapiens (Human), UniProt P61964); assay: Surface Plasmon Resonance (SPR) assay; assay type: binding; conditions: SPR, Table 2; read-out: WDR5 binding affinity SPR (KD)
pKd: −log10 of the molar value.
Mark Fulfilled for reported pKd of 7 or greater; mark Not fulfilled for anything smaller.

Please review the following examples before continuing.
Please check the record CNC(=O)c1ccc(F)c(-c2ccc(N3C[C@@H](C)N(C)[C@@H](C)C3)c(NC(=O)c3c[nH]c(=O)cc3C(F)(F)F)c2)c1 and state if its pKd is at or above 7.
Fulfilled

Please check the record COc1cc(C(F)(F)F)c(C(=O)Nc2cc(-c3cc(CN4CCC(N5CCOCC5)CC4)ccc3F)ccc2N2CCN(C)CC2)cn1 and state if its pKd is at or above 7.
Not fulfilled

Please check the record CN1CCN(c2ccc(-c3cc(CN(C)C4CCCCC4)ccc3F)cc2NC(=O)c2c[nH]c(=O)cc2C(F)(F)F)CC1 and state if its pKd is at or above 7.
Fulfilled

Please check the record Cc1cc(C(=O)Nc2cc(-c3cc(CN4CCOCC4)ccc3F)ccc2N2CCN(C)CC2)cc(C)c1F and state if its pKd is at or above 7.
Fulfilled

Read the next record carefully.
Please check the record CN1CCCN(c2ccc(-c3cc(CN4CCOCC4)ccc3F)cc2NC(=O)c2cn(C)c(=O)cc2C(F)(F)F)CC1 and state if its pKd is at or above 7.
Not fulfilled

Hey, just so you know, these numbers are from patent US11174250B2.
